Target: Noradrenalin-Aufnahme (Rattus norvegicus)
Sequence (Q9WTR4 1-597): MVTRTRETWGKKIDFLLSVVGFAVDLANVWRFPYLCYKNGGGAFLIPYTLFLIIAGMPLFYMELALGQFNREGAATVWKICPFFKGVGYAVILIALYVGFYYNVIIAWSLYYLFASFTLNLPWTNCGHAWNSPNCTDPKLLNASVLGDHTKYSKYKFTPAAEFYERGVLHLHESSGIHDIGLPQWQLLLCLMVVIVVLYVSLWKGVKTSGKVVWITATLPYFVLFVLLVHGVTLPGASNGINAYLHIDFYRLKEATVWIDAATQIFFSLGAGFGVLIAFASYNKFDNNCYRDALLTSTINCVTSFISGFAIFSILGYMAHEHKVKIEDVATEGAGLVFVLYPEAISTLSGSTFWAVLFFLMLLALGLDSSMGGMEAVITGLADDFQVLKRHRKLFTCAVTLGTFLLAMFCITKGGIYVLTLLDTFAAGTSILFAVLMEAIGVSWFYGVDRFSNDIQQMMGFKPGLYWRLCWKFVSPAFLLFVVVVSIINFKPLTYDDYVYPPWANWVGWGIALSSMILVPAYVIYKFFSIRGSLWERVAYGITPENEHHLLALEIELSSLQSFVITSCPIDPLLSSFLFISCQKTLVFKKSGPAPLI
Assay: Inhibition of 3H-noradrenaline uptake in rat brain synaptosomes (hippocampus)
Settings: rat hippocampus synaptosomes, 3H-Noradrenalin ca. 10 nM, 37°C; read-out: Hemmung der Neurotransmitter-Aufnahme in Synaptosomen Noradrenalin IC50
pIC50: −log10 of the molar value.
Assign class by pIC50: not lower than 8 means Criterion met; lower than 8 means Criterion not met.

Assess whether reported pIC50 for CN(C)CC(COc1ccc(Cl)cc1)C(O)(c1ccccc1)c1ccccc1 (centres unmarked) sits at 8 or higher.
Criterion not met

Okay, and CCC(O)(c1ccccc1)C(COc1ccc(Cl)cc1)CN(C)C (centres unmarked) [Beispiel 2.7] ?
Criterion not met

Also CN(C)CC(CSc1ccccc1)C(O)c1ccccc1 (centres unmarked) , if possible.
Criterion met

Same question, COc1ccc(OCC2CN(C)CCC2c2ccccc2)cc1 (centres unmarked) [Femoxetin, reference compound] this time
Criterion not met

Also check CCCC(O)(c1ccccc1)C(COc1ccc(Cl)cc1)CN(C)C (centres unmarked)
Criterion not met

Same question for CCOC(=O)OC(c1ccccc1)C(COc1ccccc1)CN(C)C (centres unmarked) please.
Criterion not met

For CN(C)CC(COc1ccccc1)C(O)(c1ccccc1)c1ccccc1 (centres unmarked) then?
Criterion not met

Repeat with CN(C)CC(COc1ccccc1)C(O)c1ccccc1 (centres unmarked)
Criterion met

Same again, this time with C=CC(O)(c1ccccc1)C(COc1ccccc1)CN(C)C (centres unmarked)
Criterion not met

---

So I've got a bunch of molecules here, and I need their IC50 values.
Biological target: Serotonin-Aufnahme (Rattus norvegicus)
Construct: Durch differentielle Zentrifugation wurden Synaptosomen erhalten; from tissue; host or cells: rat brain cortex synaptosomes
Assay: Inhibition of 3H-serotonin uptake in rat brain synaptosomes (cortex)
Format: biochemical, Ratte
Answer in nM, number only, no unit symbol.

Need IC50, item CCOC(=O)OC(c1ccccc1)C(COc1ccccc1)CN(C)C (stereo not drawn)
300

Also check CC(=O)OC(c1ccccc1)C(COc1ccccc1)CN(C)C.Cl (stereo not drawn)
400

Param item: C=CCOC(c1ccccc1)C(COc1ccccc1)CN(C)C (stereo not drawn)
56

---

Target: Serotonin-Aufnahme (Rattus norvegicus, UniProt P31652)
Construct: Durch differentielle Zentrifugation wurden Synaptosomen erhalten; from tissue; host or cells: rat brain cortex synaptosomes
Sequence (P31652 whole entry): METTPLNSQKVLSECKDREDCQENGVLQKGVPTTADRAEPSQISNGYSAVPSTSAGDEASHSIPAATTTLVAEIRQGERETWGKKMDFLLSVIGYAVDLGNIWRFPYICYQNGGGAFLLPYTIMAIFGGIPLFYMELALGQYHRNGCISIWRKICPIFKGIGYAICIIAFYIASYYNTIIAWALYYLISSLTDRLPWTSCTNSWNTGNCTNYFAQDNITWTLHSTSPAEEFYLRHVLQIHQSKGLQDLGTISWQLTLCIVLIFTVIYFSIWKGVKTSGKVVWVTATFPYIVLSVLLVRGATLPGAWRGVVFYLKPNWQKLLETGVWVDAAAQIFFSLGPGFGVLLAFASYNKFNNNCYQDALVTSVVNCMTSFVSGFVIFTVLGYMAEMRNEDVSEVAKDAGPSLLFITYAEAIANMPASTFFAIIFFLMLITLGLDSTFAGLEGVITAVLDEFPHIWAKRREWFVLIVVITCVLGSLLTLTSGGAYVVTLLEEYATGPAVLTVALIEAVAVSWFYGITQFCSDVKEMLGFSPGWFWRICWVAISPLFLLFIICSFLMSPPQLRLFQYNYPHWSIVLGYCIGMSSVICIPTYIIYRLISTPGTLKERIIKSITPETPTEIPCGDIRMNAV
Test: Inhibition of 3H-serotonin uptake in rat brain synaptosomes (cortex)
Assay type: biochemical, Ratte
Conditions: rat cortex synaptosomes, 3H-Serotonin ca. 10 nM, 37°C; read-out: Hemmung der Neurotransmitter-Aufnahme in Synaptosomen Serotonin IC50
OUTCOME MEASURE: IC50 (nM)
Provide the reading as a plain figure in nM.

Give its IC50 value. Item: CN(C)CC(COc1ccccc1)C(O)(c1ccccc1)c1ccccc1 (centres unmarked) [Beispiel 2.2]
200

Next entry: CN(C)CC(COc1ccccc1)C(C)(O)c1ccccc1 (centres unmarked) [Beispiel 2.4]
66

And for CN(C)CC(COc1ccc(Cl)cc1)C(O)c1ccccc1 (centres unmarked) [Beispiel 1.2] ?
20

// next record CCCCCCCCCCCCC(O)(c1ccccc1)C(COc1ccccc1)CN(C)C (centres unmarked) [Beispiel 2.11]
300

Next record, please: C=CC(O)(c1ccccc1)C(COc1ccccc1)CN(C)C (centres unmarked) [Beispiel 2.12]
69

How about this compound: CCC(O)(c1ccccc1)C(COc1ccccc1)CN(C)C (centres unmarked) [Beispiel 2]
25

Another compound to check: CN(C)CC(COc1ccccc1)C(O)c1ccc(F)cc1 (centres unmarked) [Beispiel 1.3]
490

Now try CCC(O)(c1ccccc1)C(COc1ccc(Cl)cc1)CN(C)C (centres unmarked) [Beispiel 2.9] .
100

Check CCCC(O)(c1ccccc1)C(COc1ccccc1)CN(C)C (centres unmarked) [Beispiel 2.5] too.
37

Check CN(C)CC(CSc1ccccc1)C(O)c1ccccc1 (centres unmarked) [Beispiel 1.6] too.
65

Can you check CN(C)CC(COc1ccccc1)C(O)c1ccccc1 (centres unmarked) [Beispiel 1] next?
190

Param item: CN(C)CC(COc1ccc(Cl)cc1)C(C)(O)c1ccccc1 (centres unmarked) [Beispiel 2.8]
3.8

Now the compound CN(C)CC(COc1ccc(Cl)cc1)C(O)(c1ccccc1)c1ccccc1 (centres unmarked) [Beispiel 2.3]
26

Okay, and CCCC(O)(c1ccccc1)C(COc1ccc(Cl)cc1)CN(C)C (centres unmarked) [Beispiel 2.6] ?
3.6

Here is the next compound: CCC(O)(c1ccccc1)C(COc1ccc(Cl)cc1)CN(C)C (centres unmarked) [Beispiel 2.7]
3.1

Then CN(C)CC(COc1ccc(Br)cc1)C(O)c1ccccc1 (centres unmarked) [Beispiel 1.4] ?
73

Same thing, different compound: CCCCCCCCC(O)(c1ccccc1)C(COc1ccccc1)CN(C)C (centres unmarked) [Beispiel 2.10]
49

---

Target: Noradrenalin-Aufnahme (Rattus norvegicus)
Test: Inhibition of 3H-noradrenaline uptake in rat brain synaptosomes (hippocampus)
Settings: rat hippocampus synaptosomes, 3H-Noradrenalin ca. 10 nM, 37°C; read-out: Hemmung der Neurotransmitter-Aufnahme in Synaptosomen Noradrenalin IC50
What pIC50 was measured for each of the following?
# reply with the number alone; pIC50 is -log10 of concentration in mol/L

// query pIC50 value for entry CN(C)CC(COc1ccccc1)C(C)(O)c1ccccc1 (stereo not drawn)
7.44

Ok, now CN(C)CC(COc1ccc(Cl)cc1)C(C)(O)c1ccccc1 (stereo not drawn)
6.80

Would you mind doing CN(C)CC(COc1ccc(Br)cc1)C(O)c1ccccc1 (stereo not drawn) as well?
7.77

Next molecule: CCC(O)(c1ccccc1)C(COc1ccccc1)CN(C)C (stereo not drawn)
7.96

Moving on to CN(C)CC(COc1ccc(Cl)cc1)C(O)c1ccccc1 (stereo not drawn)
6.74

CC(=O)OC(c1ccccc1)C(COc1ccccc1)CN(C)C.Cl (stereo not drawn) , same question.
8.77

Thanks! And CCC(O)(c1ccccc1)C(COc1ccc(Cl)cc1)CN(C)C (stereo not drawn) [Beispiel 2.9] ?
7.17

Can you check CCCCCCCCCCCCC(O)(c1ccccc1)C(COc1ccccc1)CN(C)C (stereo not drawn) next?
6.30

Ok, now CCCCCCCCC(O)(c1ccccc1)C(COc1ccccc1)CN(C)C (stereo not drawn)
7.42

Data origin, for the record: patent EP0109623A1
